Consider molecules characterized by their MPE with BALB/c 3T3 (CCL-163) cells.
The reply should be a number, written without any unit.

Using the record for CC1c2cccc(O)c2C(=O)C2=C(O)C3(O)C(=O)C(C(N)=O)=C(O)CC3C(O)C21 (stereo not shown) , state its measured MPE.
0.703

Using the record for CN(C)C1C(=O)C(C#N)=C(O)C2(O)C(=O)C3=C(O)c4c(O)cccc4C(C)(O)C3CC12 (stereo not shown) , state its measured MPE.
0.005

Using the record for CC1(O)c2cccc(O)c2C(=O)C2=C(O)C3(O)C(=O)C(C(N)=O)=C(O)CC3CC21 (stereo not shown) , state its measured MPE.
0.460

Using the record for CCCCCCCCCCCCCCCC(=O)Nc1ccc2c(c1O)C(=O)C1=C(O)C3(O)C(=O)C(C(N)=O)=C(O)CC3CC1C2 (stereo not shown) , state its measured MPE.
0.013

Using the record for NC(=O)C1=C(O)CC2CC3Cc4c([N+](=O)[O-])ccc(O)c4C(=O)C3=C(O)C2(O)C1=O (stereo not shown) , state its measured MPE.
0.378

Using the record for CC1(O)c2cccc(O)c2C(=O)C2=C(O)C3(O)C(=O)C(C(N)=O)=C(O)C(O)C3CC21 (stereo not shown) [COL 6, 4-hydroxy-4-dedimethylaminotetracycline] , state its measured MPE.
0.155

Using the record for `NC(=O)C1=C(O)C[C@@H]2C[C@@H]3Cc4cccc(O)c4C(=O)C3=C(O)[C@]2(O)C1=O` , state its measured MPE.
0.654

Using the record for CC1c2ccc(NC(=O)CN(C)C)c(O)c2C(=O)C2=C(O)C3(O)C(=O)C(C(N)=O)=C(O)CC3C(O)C21 (stereo not shown) , state its measured MPE.
−0.123

Using the record for CC1(O)c2c(Cl)ccc(O)c2C(=O)C2=C(O)C3(O)C(=O)C(C(N)=O)=C(O)CC3CC21 (stereo not shown) , state its measured MPE.
0.570

Using the record for NC(=O)C1=C(O)CC2CC3Cc4ccc([N+](=O)[O-])c(O)c4C(=O)C3=C(O)C2(O)C1=O (stereo not shown) , state its measured MPE.
0.309

Using the record for CN(C)c1ccc(O)c2c1CC1CC3CC(O)=C(C(N)=O)C(=O)C3(O)C(O)=C1C2=O (stereo not shown) , state its measured MPE.
0.099

Using the record for CC1c2ccc([N+](=O)[O-])c(O)c2C(=O)C2=C(O)C3(O)C(=O)C(C(N)=O)=C(O)CC3C(O)C21 (stereo not shown) , state its measured MPE.
0.003

Using the record for CC1c2ccc(N)c(O)c2C(=O)C2=C(O)C3(O)C(=O)C(C(N)=O)=C(O)CC3C(O)C21 (stereo not shown) , state its measured MPE.
0.022

Using the record for CN(C)c1cc([N+](=O)[O-])c(O)c2c1CC1CC3CC(O)=C(C(N)=O)C(=O)C3(O)C(O)=C1C2=O (stereo not shown) , state its measured MPE.
0.040

Using the record for O=C(NCN1CCOCC1)C1=C(O)CC2CC3Cc4cccc(O)c4C(=O)C3=C(O)C2(O)C1=O (stereo not shown) , state its measured MPE.
0.475

Using the record for CN(C)c1ccc2c(c1O)C(=O)C1=C(O)C3(O)C(=O)C(C(N)=O)=C(O)CC3CC1C2 (stereo not shown) , state its measured MPE.
0.038

Using the record for CC1(O)c2cccc(O)c2C(=O)C2=C(O)C3C(=O)C(C(N)=O)=C(O)CC3CC21 (stereo not shown) , state its measured MPE.
0.531

Using the record for NC(=O)C1=C(O)CC2CC3Cc4ccc(N)c(O)c4C(=O)C3=C(O)C2(O)C1=O (stereo not shown) , state its measured MPE.
0.015

Using the record for C[N+](C)(C)c1ccc(O)c2c1CC1CC3CC(O)=C(C(N)=O)C(=O)C3(O)C(O)=C1C2=O (stereo not shown) , state its measured MPE.
0.025
